- procedure-text: qHTS assay to identify small molecule antagonists of the retinoid acid receptor (RAR) signaling pathway - cell viability counter screen (AID 1159551); further: nearly all actives have a fitted effect of over 35% in size
- test-parameters: C3RL4 cells viability, ATP luminescence (CellTiter-Glo), 6 h; series mostly up to 92.4 µM
- Description: U.S. Tox21 Program National Center for Advancing Translational Sciences [NCATS] NIH Chemical Genomics Center [NCGC] U.S. Environmental Protection Agency [EPA] National Institutes of Environmental Health Sciences [NIEHS] National Toxicology Program [NTP] U.S. Food and Drug Administration [FDA] […] Also cytotoxicity was assessed by determining the viability of cells based on the quantitation of ATP. […]
Records with an inconclusive call do not appear. Activity calls are given as the source filed them. The call rests on the fitted dose curve; in most records, active means well fitted cell-killing curve with a large enough effect in the repeat runs; inconclusive means weak or mixed curves, or effect the other way; inactive means flat fitted curve, though single readings scatter.
experimental-readout: activity change, negative = cytotoxicity

Answered cases to consult:
1) CC(C)(C)c1n[nH]c(=S)n(N)c1=O : inactive
2) O=C(O)C(=O)Cc1ccccc1 : inactive
3) C=Cc1ccccn1 : inactive
4) CNC(=O)[C@H]1O[C@@H](n2cnc3c(NCc4cc(Cl)ccc4OCc4cc(C)no4)ncnc32)[C@H](O)[C@@H]1N : inactive
5) CC1(CO)CN(c2ccccc2)NC1=O (stereo not drawn) : inactive

For record C#CC(C)N(C)C(=O)Nc1ccc(Cl)cc1 (stereo not drawn) the listed activity change, negative = cytotoxicity is inactive

For record C=C(C)C(=O)OCC(C)(C)COC(=O)C(=C)C the listed activity change, negative = cytotoxicity is inactive

For record CC[C@H](C)C(=O)O[C@H]1C[C@H](O)C=C2C=C[C@H](C)[C@H](CC[C@@H](O)C[C@@H](O)CC(=O)O)[C@H]21 the listed activity change, negative = cytotoxicity is inactive

For record BrCc1cccc(Oc2ccccc2)c1 the listed activity change, negative = cytotoxicity is inactive

====

- procedure-text: qHTS assay to identify small molecule agonists of the retinoic acid receptor (RAR) signaling pathway (AID 1159553)
- test-parameters: C3RL4 RARE luciferase reporter, agonist, 6 h; series mostly up to 73.3 µM
Results filed as inconclusive are left out. Calls of active or inactive are those of the source. The call rests on the fitted dose curve; in most records, active means well fitted activation curve with a large enough effect in the repeat runs; inconclusive means weak or mixed curves, or effect the other way; inactive means no such curve, though single readings can be large or run the other way.
Choose one outcome from this list and give only that: active, inactive

Below are worked cases with known answers.
1. CCOCCOC(=O)/C=C/c1ccc(OC)cc1 : active
2. O=P(O)(O)OP(=O)(O)O : inactive

Could you check what this test reported for CCCCOC(=O)c1ccccc1 ?
inactive

====

- procedure-text: qHTS assay to identify small molecule phospholipidosis (PLD) inducers (AID 1259344)
- test-parameters: HepG2 phospholipidosis, LipidTOX Red imaging, 24 h; series mostly up to 38.3 µM
Records with an inconclusive call do not appear. Calls of active or inactive are those of the source. The call rests on the fitted dose curve; in most records, active means well fitted activation curve with a large enough effect; inconclusive means small, poorly fitted or top-dose-only effect; inactive means flat fitted curve, though single readings scatter.
experimental-readout: outcome

Answered cases to consult:
1) COc1ccc2c(c1)C(=O)N(CCc1ccc(S(=O)(=O)NC(=O)NC3CCCCC3)cc1)C(=O)C2(C)C : inactive
2) CCN(C)C(=O)Oc1cccc([C@H](C)N(C)C)c1 : inactive
3) COc1ccc2c(c1OC)C(=O)O[C@@H]2[C@H]1c2c(cc3c(c2OC)OCO3)CCN1C : inactive
4) CCCN1C[C@H](CSC)C[C@@H]2c3cccc4[nH]cc(c34)C[C@H]21 : inactive
5) CCN1CCc2nc(N)oc2CC1 : inactive

For record CC(C(=O)O)c1ccc2c(c1)CC(=O)c1ccccc1S2 (stereo unspecified) the listed outcome is inactive

For record N[C@@H](COP(=O)(O)O)C(=O)O the listed outcome is inactive

For record COc1ccc(C2CNC(=O)C2)cc1OC1CCCC1 (stereo unspecified) the listed outcome is inactive

For record Cc1cc(C(C)(C)C)c(O)c(C)c1CC1=NCCN1 the listed outcome is inactive

For record Nc1ccc(S(=O)(=O)Nc2ccc(Cl)nn2)cc1 the listed outcome is inactive

For record N[C@@H](CCC(=O)N[C@@H](CS)C(=O)NCC(=O)O)C(=O)O the listed outcome is inactive

All values here come from PubChem BioAssay (Tox21).
